# hERG current change (%, negative = inhibition) at 10uM annotations
Target or test system: human ether-à-go-go-related gene (hERG) potassium channel (human);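 further: peak tail current of the secondary pulse compared with the same well before compound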
Sequence (Q12809 whole entry, looked up): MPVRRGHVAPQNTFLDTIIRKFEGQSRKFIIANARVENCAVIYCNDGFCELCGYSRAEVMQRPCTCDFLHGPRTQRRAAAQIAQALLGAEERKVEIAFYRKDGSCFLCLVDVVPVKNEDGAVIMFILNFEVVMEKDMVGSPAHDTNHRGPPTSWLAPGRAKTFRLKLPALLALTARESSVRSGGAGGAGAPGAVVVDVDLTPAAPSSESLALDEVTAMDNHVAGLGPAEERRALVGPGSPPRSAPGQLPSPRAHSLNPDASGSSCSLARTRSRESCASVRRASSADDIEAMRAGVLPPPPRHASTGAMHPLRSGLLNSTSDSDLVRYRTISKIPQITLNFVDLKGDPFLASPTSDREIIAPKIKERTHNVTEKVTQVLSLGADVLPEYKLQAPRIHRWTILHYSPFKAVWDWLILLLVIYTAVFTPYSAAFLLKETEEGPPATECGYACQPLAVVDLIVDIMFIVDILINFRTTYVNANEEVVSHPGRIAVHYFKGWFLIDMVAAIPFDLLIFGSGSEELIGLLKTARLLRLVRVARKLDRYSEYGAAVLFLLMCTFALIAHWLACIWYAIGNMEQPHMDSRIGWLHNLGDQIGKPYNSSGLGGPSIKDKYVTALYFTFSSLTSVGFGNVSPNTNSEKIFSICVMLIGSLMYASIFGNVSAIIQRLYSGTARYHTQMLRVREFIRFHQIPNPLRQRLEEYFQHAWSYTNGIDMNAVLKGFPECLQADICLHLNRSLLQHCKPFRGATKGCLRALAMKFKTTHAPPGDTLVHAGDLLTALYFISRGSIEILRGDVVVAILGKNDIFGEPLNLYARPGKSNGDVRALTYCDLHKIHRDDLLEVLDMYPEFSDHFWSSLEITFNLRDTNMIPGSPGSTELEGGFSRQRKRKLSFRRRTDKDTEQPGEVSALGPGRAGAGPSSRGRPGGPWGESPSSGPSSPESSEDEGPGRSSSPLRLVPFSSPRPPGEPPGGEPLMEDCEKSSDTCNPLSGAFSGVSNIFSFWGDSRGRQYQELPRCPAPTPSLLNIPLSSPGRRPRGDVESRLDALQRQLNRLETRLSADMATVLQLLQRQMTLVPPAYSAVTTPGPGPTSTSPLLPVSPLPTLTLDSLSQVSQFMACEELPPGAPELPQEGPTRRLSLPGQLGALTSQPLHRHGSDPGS
Assay procedure: primary screen, population patch clamp on CHO cells stably expressing hERG; higher = less effect of the substance
The whole screen tested about 310,000 compounds, of which about 14,000 (4.5%) showed an effect of 50% or more. The effect is printed as a negative number. The sample as a whole holds a higher share of strong results than the screen did.
Answer format reminder: number followed by unit.

Please review the entries below; each comes with its answer.
- Compound: "COCCNC(=O)CSc1nc2cc3c(cc2c(=O)n1Cc1ccco1)OCO3"
  Result: "-27.4%"
- Compound: "COc1cc2nc(SCC(=O)NCCc3ccccc3)n(Cc3ccco3)c(=O)c2cc1OC"
  Result: "-43.3%"
- Compound: "O=C(CSc1nc2ccccc2c(=O)n1Cc1ccc(Cl)cc1)NCc1cccs1"
  Result: "-52.5%"
- Compound: "CCOC(=O)c1c(C)nsc1NC(=O)C1CCCCC1"
  Result: "17.3%"
- Compound: "COCCNC(=O)CSc1nc2cc(OC)c(OC)cc2c(=O)n1Cc1ccco1"
  Result: "-61.2%"

Q: State its hERG current change (%, negative = inhibition) at 10uM for this compound: O=C(CSc1nc2ccsc2c(=O)n1Cc1ccc(C(=O)O)cc1)NCc1ccco1
Ans: 2.08%

Q: State its hERG current change (%, negative = inhibition) at 10uM for this compound: O=C(CSc1nc2ccccc2c(=O)n1Cc1ccco1)NCc1ccccc1
Ans: -29.3%

Q: State its hERG current change (%, negative = inhibition) at 10uM for this compound: NC(=O)Cn1cc(C(=O)c2ccccc2F)c2ccccc21
Ans: 25.1%

Q: State its hERG current change (%, negative = inhibition) at 10uM for this compound: CCN(CC)C(=O)C1CCCN(C(=O)CCn2nnnc2CN2CCOCC2)C1 (stereo not shown)
Ans: 17.7%

Q: State its hERG current change (%, negative = inhibition) at 10uM for this compound: Cc1ccccc1-n1c(SCC(=O)NCc2cccs2)nc2ccccc2c1=O
Ans: -17.4%

Values were extracted from paper PMC4336329.
